Here, each record is paired with measured Kd data.
# study_target: TNF-alpha (Homo sapiens, UniProt P01375 P01375:77-233)
# Sequence (P01375 77-233, one chain of several): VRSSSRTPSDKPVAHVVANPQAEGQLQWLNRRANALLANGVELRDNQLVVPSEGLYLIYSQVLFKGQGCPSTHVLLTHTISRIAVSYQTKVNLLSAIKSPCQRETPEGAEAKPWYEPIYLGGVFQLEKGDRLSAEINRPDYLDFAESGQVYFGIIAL
# experiment_description: filter; class II
# test_conditions: tags: Genzyme or R&D Systems; chain copies: 3 inferred
Kindly provide the numeric value in µM only, without the unit symbol.

Look up and state reported Kd for TNF 6A (ssRNA) RNA: GGGAGCUCAGAAUAAACGCUCAACCACUGGCUAGGAACUCGAGUACUGGGUGGUUCGACAUGAGGCCCGGAUCCGGC
0.12

Look up and state reported Kd for TNF 4A (ssRNA) RNA: GGGAGCUCAGAAUAAACGCUCAACGCACUCGGACGGAAUCUCCGUAGGACACGUUCGACAUGAGGCCCGGAUCCGGC
0.32

More entries:
Look up and state reported Kd for TNF 14C (ssRNA) RNA: GGGAGCUCAGAAUAAACGCUCAACGGCUUGCAGGUCGCCGAAAUGACCGCACAUUCGACAUGAGGCCCGGAUCCGGC
0.06

Data credit: patent US5972599
